molecular target: T1, genetically modified and chemically inactivated C. difficile toxoid A (Clostridium difficile, UniProt P16154 2-2710); assay: ITC
T1 construct: also called TxdA; the toxoid
Answer each item with its documented pKd.
As a rule, pKd stands for the negative log10 of the concentration, concentration in M.

Q: Query (binder): hCDIFA-46 (antibody, V domains shown) VH: EVQLVESGGGLVQPGGSLRLSCAASGFTVSRNYMTWVRQAPGKGLEWVSVIYSGGSTYHADSVKGRFTISRDNSKNTLNLQMSSLRAEDTAVYYCARPCPGSSISCDYNMDVWGQGTTVTVSS VL: QAVVTQPASVSGSPGQSITISCTGTSSDVGGYNYVSWYQQHPGKAPKLIIYEVSNRPSGVSNRFSGSKSGNTASLTISGLQAEDEADYYCTSYTSSSMIDVFGTGTKLTVLG ; field requested: pKd
Ans: 8.52

Q: // repeat for hCDIFA-37 (antibody, V domains shown) VH: QVQLLESGPGLVKTSGTLSLTCSVSGDSVSTNNWWTWVRQPPGKGLEWIGEIYYNGNTIYNPSFKSRVTISVNRSKNHFSLKLNSVTAADRAVYYCARRTWNDVGPFDYWGQGILVTVSS VL: DIVMTQSPSSLSASIGDRVIITCRASQNINRYLNWYQQTAGKAPKLLIYGTSNLQSGVPSRFSGSGSGSGTDFTLTISSLQPEDFATYYCHQSYRTPQTFGQGTKLEIKR and report
Ans: 8.15

Q: Quick one: hCDIFA-1 (antibody, V domains shown) VH: QLQLQESGPGLVKPSETLSLICTVSGGSFSSSDFYWGWIRQPPGKGLEWIGNFYYNGSTSYNPSLKSRVTISVDTSKNQFSLKLRSVTAADTAVYYCARDYNFWNNSPNWFDPWGQGTLVTVSS VL: EIVMTQSPATLSVSPGERATLSCRASQSISSNLAWYQQKLGQAPRLLIHGASTRATGIPARFSGSGSGTQFTLTISSLQSEDFAVYFCQQYNNWPPTFGGGTKVDIKR
Ans: 8.10

Q: Also, hCDIFA-35 (antibody, V domains shown) VH: EVQLVQSGGGVVQPGRSLKLSCAASGFSFSSHGMHWVRQAPGKGLEWVALISYDGSYKYYEDSVKGRFTISRDNSKNTLYLQMNSLRAEDTAVYYCAKDWERYCSGMSCYLRNSLDYWGQGTLVTVSS VL: QSALTQPPSVSVAPGKTAGITCGGPNIGSKSVHWYQRKPGQAPVLVVYDDRYRPSGIPERFSGSNSGNTATLSISRVEAGDEADYYCQVWDSRSDHVVFGGGTKLTVLG please.
Ans: 8.10

Q: Check hCDIFA-33 (antibody, V domains shown) VH: QVQLVQSGGGLVQPGGSLRLSCVASGFTFSSYAMTWVRQAPGMGLEWVSTISLSGSTIYYADSVKGRFTISRDNPKNTLYLQMNSLRAEDTAVYYCAEGQGAFDFWGQGTMVTVSS VL: NFMLTQPPSASGTPGQRVTISCSGSTSNIGGNTVNWYQQLPGTAPKLLIYSNIQRPSGVPDRFSGSKSGTSASLAIRGLRSEDEADYYCSTWDDSRKGVVFGGGTKLTVLG too.
Ans: 7.51
